Documented MIC across a set of molecules
- Tested on: N. gonorrhoeae FA1090
- assay_name: Liquid broth MIC in Fastidious broth
- Assay type: cell-based
- run_conditions: Neisseria gonorrhoeae; N. gonorrhoeae strain FA1090; Fastidious broth; read-out: Minimum Inhibitory Concentration, N. gonorrhoeae FA1090

NCCN1CCN(C(=O)N[C@H](C(=O)N[C@H]2Cc3cccc(C(=O)O)c3OB2O)c2cccc(NS(N)(=O)=O)c2)C(=O)C1=O (single isomer, unassigned): 4 to 8 µg/mL
CCN1CCN(C(=O)NC(C(=O)N[C@H]2Cc3ccc(O[C@@H]4CN[C@H](C(=O)N(C)C)C4)c(C(=O)O)c3OB2O)c2ccccc2)C(=O)C1=O (stereo partly shown): 4 to 8 µg/mL
CCN1CCN(C(=O)N[C@@H](C(=O)N[C@H]2Cc3cccc(C(=O)O)c3OB2O)c2cc(O)cc(O)c2)C(=O)C1=O (single isomer, unassigned): < 0.125 µg/mL
CCN1CCN(C(=O)NC(C(=O)N[C@H]2Cc3ccc(F)c(C(=O)O)c3OB2O)c2c(F)cc(O)cc2F)C(=O)C1=O (stereo partly shown): 1 to 2 µg/mL
O=C(O)c1ccc(C(NC(=O)c2ccc(O)c(O)c2Cl)C(=O)N[C@H]2Cc3cccc(C(=O)O)c3OB2O)cc1F (stereo partly shown): 16 to 32 µg/mL
CCN1CCN(C(=O)N[C@@H](C(=O)N[C@H]2Cc3cccc(C(=O)O)c3OB2O)c2ccc(C(=O)O)cc2O)C(=O)C1=O (single isomer, unassigned): < 0.125 µg/mL
NCCN1CCN(C(=O)NC(C(=O)N[C@H]2Cc3cccc(C(=O)O)c3OB2O)c2ccc(C(=O)O)c(Cl)c2)C(=O)C1=O (stereo partly shown): 1 to 2 µg/mL
NS(=O)(=O)c1cc(O)cc(C(NC(=O)N2CCN(Cc3c(F)cc(O)c(O)c3Cl)C(=O)C2=O)C(=O)N[C@H]2Cc3cccc(C(=O)O)c3OB2O)c1 (stereo partly shown): 16 to 32 µg/mL
NCCN1CCN(C(=O)N[C@@H](C(=O)N[C@H]2Cc3cccc(C(=O)O)c3OB2O)c2ccc(O)cc2Cl)C(=O)C1=O (single isomer, unassigned): 1 to 2 µg/mL
NCCN1CCN(C(=O)N[C@@H](C(=O)N[C@H]2Cc3cccc(C(=O)O)c3OB2O)c2ccc(O)c([N+](=O)[O-])c2)C(=O)C1=O (single isomer, unassigned): 1 to 2 µg/mL

If you can, please state the reported MIC value of CCN1CCN(C(=O)NC(C(=O)N[C@H]2Cc3cccc(C(=O)O)c3OB2O)c2ccc(O)c(NS(N)(=O)=O)c2)C(=O)C1=O (stereo partly shown) .
1 to 2 µg/mL

Find the recorded MIC belonging to CCN1CCN(C(=O)NC(C(=O)N[C@H]2Cc3cccc(C(=O)O)c3OB2O)c2ccc(O)cc2O)C(=O)C1=O (stereo partly shown) and report it.
0.25 to 0.5 µg/mL

The measurements presented in this section are drawn from patent US20230114728A1.
